Provenance of the data: the supplement of paper PMC3334620

target-under-test: Cin5 (UniProt P40917)
Sequence: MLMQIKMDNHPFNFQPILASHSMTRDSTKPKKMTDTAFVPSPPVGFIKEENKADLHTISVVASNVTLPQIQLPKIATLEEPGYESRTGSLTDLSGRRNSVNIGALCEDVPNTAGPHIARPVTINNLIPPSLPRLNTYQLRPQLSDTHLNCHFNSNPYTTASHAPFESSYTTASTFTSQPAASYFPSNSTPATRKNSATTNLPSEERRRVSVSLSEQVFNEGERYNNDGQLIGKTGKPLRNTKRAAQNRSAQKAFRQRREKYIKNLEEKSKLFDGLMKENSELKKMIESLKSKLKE
method-notes: PBM E-score (8-mer binding enrichment) (E-score (-0.5 to 0.5)); higher = stronger / more preferred TF binding
assay-setup: protein concentration: 100 nM; construct: GST-full length
The full ranking holds about 33,000 sequences; the median of “E-score (-0.5 to 0.5)” is about -0.0059, and the highest 2% start at about 0.26. The full list was thinned out, with the highest values kept by preference.
PBM E-score reference
measured-metric: PBM E-score

{"columns": ["sequence-code", "measured-metric", "result-number"],
 "data": [
  ["CCGATTAC", "PBM E-score", 0.23],
  ["TCTAAACA", "PBM E-score", -0.115],
  ["CGGATTAC", "PBM E-score", 0.122],
  ["ACCTATAC", "PBM E-score", 0.0459],
  ["AACTATAT", "PBM E-score", 0.294],
  ["AGGCAGAC", "PBM E-score", -0.247],
  ["TCCCAGAA", "PBM E-score", -0.129],
  ["TCTAATCA", "PBM E-score", 0.231],
  ["CTAGTAAA", "PBM E-score", 0.165],
  ["ACTAAACA", "PBM E-score", 0.258],
  ["AACCCAAC", "PBM E-score", 0.17],
  ["ATATCGCC", "PBM E-score", 0.0352],
  ["ATATCGAC", "PBM E-score", 0.249],
  ["GTGGAATA", "PBM E-score", 0.193],
  ["ATCTCGCA", "PBM E-score", 0.00313],
  ["CAGTCCGA", "PBM E-score", -0.0341],
  ["CATAAATA", "PBM E-score", 0.183],
  ["CCCGAGTA", "PBM E-score", 0.15],
  ["AAATAGAT", "PBM E-score", 0.297],
  ["CGATGGCA", "PBM E-score", -0.0471],
  ["CGATTTAG", "PBM E-score", 0.182],
  ["CCCCGGGC", "PBM E-score", -0.282],
  ["AGTATTCC", "PBM E-score", 0.225],
  ["AAGATGGA", "PBM E-score", 0.109],
  ["CTACCCTA", "PBM E-score", -0.101],
  ["AACCTCCG", "PBM E-score", -0.183],
  ["AAATATAT", "PBM E-score", 0.295],
  ["CCCGTTCA", "PBM E-score", -0.0227],
  ["AAGATTAC", "PBM E-score", 0.255],
  ["CAGCCGCC", "PBM E-score", -0.0669],
  ["TCACCAGA", "PBM E-score", -0.144],
  ["CGTATTAC", "PBM E-score", 0.214],
  ["ACATAAAC", "PBM E-score", 0.263],
  ["AACCTGAC", "PBM E-score", 0.131],
  ["AACCCTGC", "PBM E-score", -0.0766],
  ["GCATAAAC", "PBM E-score", 0.115],
  ["ACTAAACC", "PBM E-score", -0.0367],
  ["AGTATTAG", "PBM E-score", 0.275],
  ["ACATAAAG", "PBM E-score", 0.00631],
  ["AAAGCATC", "PBM E-score", 0.134],
  ["CACTCGGG", "PBM E-score", -0.117],
  ["ATAGTAAT", "PBM E-score", 0.358],
  ["AATAAATA", "PBM E-score", 0.293],
  ["TATAAATA", "PBM E-score", 0.283],
  ["TCGATTAA", "PBM E-score", 0.267],
  ["TCTTAGAA", "PBM E-score", 0.0741],
  ["ACATTAAA", "PBM E-score", 0.152],
  ["ATATAAAG", "PBM E-score", 0.137],
  ["ATAGATTA", "PBM E-score", 0.302],
  ["CAAAGACG", "PBM E-score", -0.0507],
  ["ATGGAATC", "PBM E-score", 0.242],
  ["AAATATAA", "PBM E-score", 0.203],
  ["GGGATTAC", "PBM E-score", 0.264],
  ["ACTCTTGC", "PBM E-score", -0.108],
  ["AACTATAC", "PBM E-score", 0.0815],
  ["ATCGTAAC", "PBM E-score", 0.0852],
  ["CTGGAGAA", "PBM E-score", -0.202],
  ["ACATAAAA", "PBM E-score", 0.22],
  ["ATAGATTG", "PBM E-score", 0.224],
  ["ACAATTTC", "PBM E-score", 0.139],
  ["CGGGGGTC", "PBM E-score", -0.417],
  ["ATCTCGCC", "PBM E-score", 0.0516],
  ["GTAGAATA", "PBM E-score", 0.194],
  ["ATATCGCG", "PBM E-score", 0.301],
  ["CCCGTAAC", "PBM E-score", -0.0624],
  ["AATAAATG", "PBM E-score", 0.269],
  ["AGTATTAT", "PBM E-score", 0.0851],
  ["ATCACCTG", "PBM E-score", 0.148],
  ["ATTAAATC", "PBM E-score", 0.205],
  ["AGCTTCGG", "PBM E-score", -0.187],
  ["TCGAGTCA", "PBM E-score", -0.0465],
  ["ACGATTAC", "PBM E-score", 0.295],
  ["CGCAGCGC", "PBM E-score", -0.138],
  ["CACTGAGG", "PBM E-score", -0.0826]
]}

* * *

target-under-test: Cin5 (UniProt P40917)
Sequence: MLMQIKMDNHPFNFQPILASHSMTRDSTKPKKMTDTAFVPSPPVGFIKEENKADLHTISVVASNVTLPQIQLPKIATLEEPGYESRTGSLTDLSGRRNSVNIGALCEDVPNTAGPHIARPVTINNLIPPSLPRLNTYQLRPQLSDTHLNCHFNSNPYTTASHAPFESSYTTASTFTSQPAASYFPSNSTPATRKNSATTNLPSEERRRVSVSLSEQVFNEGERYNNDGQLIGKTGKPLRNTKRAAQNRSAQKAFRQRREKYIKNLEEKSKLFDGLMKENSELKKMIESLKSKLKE
method-notes: PBM E-score (8-mer binding enrichment) (E-score (-0.5 to 0.5)); higher = stronger / more preferred TF binding
assay-setup: protein concentration: 100 nM; construct: GST-full length
The full ranking holds about 33,000 sequences; the median of “E-score (-0.5 to 0.5)” is about -0.0059, and the highest 2% start at about 0.26. What follows is part of a selection rich in the highest values, with near analogues and random picks from the rest.

{"columns": ["sequence-code", "PBM E-score"],
 "data": [
  ["ATCGGTGA", 0.103],
  ["CTATATAG", 0.103],
  ["CTATATAA", 0.0999]
]}

* * *

target-under-test: Cin5 (UniProt P40917)
Sequence: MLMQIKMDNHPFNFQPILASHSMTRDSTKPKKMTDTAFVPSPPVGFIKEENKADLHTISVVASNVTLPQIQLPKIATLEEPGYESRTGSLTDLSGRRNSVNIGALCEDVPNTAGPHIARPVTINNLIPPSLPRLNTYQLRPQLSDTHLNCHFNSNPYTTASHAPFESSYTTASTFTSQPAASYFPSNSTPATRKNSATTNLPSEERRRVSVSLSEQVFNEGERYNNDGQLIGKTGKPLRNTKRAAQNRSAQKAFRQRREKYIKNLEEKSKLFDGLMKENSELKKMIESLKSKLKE
method-notes: PBM E-score (8-mer binding enrichment) (E-score (-0.5 to 0.5)); higher = stronger / more preferred TF binding
assay-setup: protein concentration: 100 nM; construct: GST-full length
In all, about 33,000 sequences were measured (“E-score (-0.5 to 0.5)”: median about -0.0059, highest 2% from about 0.26 on). For the sample, the highest values were picked, then their nearest neighbours and some sequences at random.

{"columns": ["sequence-code", "PBM E-score"],
 "data": [
  ["TCATATAA", 0.197],
  ["ATATTAAC", 0.28],
  ["CTAGATAA", 0.0277],
  ["AAATTATG", 0.24],
  ["AAACTAAT", 0.312],
  ["GTAAGCGA", 0.383],
  ["AAACTAAG", 0.185],
  ["TATATCAA", 0.196],
  ["ACCATCGG", -0.108],
  ["CACGAGAC", -0.11],
  ["AAATTATT", 0.183],
  ["GTATTAAC", 0.00428],
  ["GTATTAAA", 0.149],
  ["ATAAGCGG", 0.206],
  ["AGATTAAT", 0.218],
  ["AAATTACA", 0.248],
  ["CCCCGGTC", -0.2],
  ["GTCAGCCA", 0.07],
  ["ATAAGCGC", 0.188],
  ["GAATTATC", 0.145],
  ["TAATATAA", 0.355]
]}
